Field: Kd. Provide a value for each of the binders that follow.
Target Or Test System: T1, recombinant purified human IL-12 p70 (human, UniProt P29459 23-219)
T1 construct: Disulfide-linked heterodimer of p35 and p40; also called hIL-12; Hu IL-12
T1 sequence 1: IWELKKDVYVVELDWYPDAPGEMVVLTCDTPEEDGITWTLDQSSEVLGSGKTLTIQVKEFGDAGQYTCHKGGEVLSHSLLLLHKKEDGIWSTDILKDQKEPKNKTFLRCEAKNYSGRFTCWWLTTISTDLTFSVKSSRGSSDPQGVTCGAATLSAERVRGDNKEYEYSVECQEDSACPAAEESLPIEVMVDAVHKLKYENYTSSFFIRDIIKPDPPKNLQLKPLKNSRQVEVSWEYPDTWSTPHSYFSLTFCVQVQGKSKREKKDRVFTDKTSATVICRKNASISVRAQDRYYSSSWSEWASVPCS
T1 sequence 2: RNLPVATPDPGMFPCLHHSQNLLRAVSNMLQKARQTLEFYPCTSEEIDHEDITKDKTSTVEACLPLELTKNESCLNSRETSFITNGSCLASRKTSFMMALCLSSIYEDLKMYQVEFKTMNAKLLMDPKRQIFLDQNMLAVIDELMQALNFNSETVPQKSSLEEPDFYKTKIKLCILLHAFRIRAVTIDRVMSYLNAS
Measurement Notes: SPR (BIAcore) as in Example 1.1.B, human IL-12p70
Numbers only, in nM.

[[record]]
binder = "anti-IL-12p40 humanized antibody 8E1.3 (antibody, human IgG1, kappa, L234A L235A, V domains shown, Back-mutated CDR-grafted antibody; COS cells) VH: EVKLVESGGGLVQPGGSLRLSCAASGFTFSDYGMVWVRQAPGKGLEWVASISSGSSNIYYADTVKGRFTISRDDSKNTLYLQMNSLKTEDTAVYYCARNPYWGQGTTVTVSS VL: DIVMTQSPSSLSASVGDRVTITCKASQNVGTNVAWYQQKPEKAPKSLIYSASHRYSGVPSRFSGSGSGTDFTLTISSLQPEDFATYYCQQYNSYPLTFGGGTKVEIKR"
value_type = "Kd"
value_unit = "nM"
numeric_value = 0.76


Value of Kd reported for the binder anti-IL-12p40 humanized antibody 3G7.3 (antibody, human IgG1, kappa, L234A L235A, V domains shown, Back-mutated CDR-grafted antibody; COS cells) VH: EVQLVQSGAEVKKPGASVKVSCKATGYTFNDYWIEWVRQAPGQGLEWMGGFSHGSGSTNYNEKFKGRVTMTADSSTNTAYMELRSLRSDDTAVYYCARRRFRGMDYWGQGTTVTVSS VL: EIVMTQSPATLSVSPGERATLSCKASQSVSNDVAWYQQKPGQAPRLLIYYASNRYTGVPDRFSGSGSGTEFTLTISSLQSEDFAVYYCQQDYSSPWSFGGGTKVEIKR is 0.2

// data source = patent US20140178332A1
